Cited source for all entries: patent US7078403B1

# RUN_DESCRIPTION: in vitro

SMI	CC50
CCO/N=C/c1ccc(OCCC2CCN(c3ccc(Cl)nn3)CC2)cc1	> 50 mg/L

###

# Test system: Rhinovirus Type 14
# Assay type: cell-based, human rhinovirus
# MEASUREMENT_CONDITIONS: HRV-14
In this section we review reported Activity on Rhinovirus Type 14 EC50 values for a set of molecules.

SMI	Activity on Rhinovirus Type 14 EC50 / µg/mL
CON=Cc1ccc(OCCC2CCN(c3ccc(Cl)nn3)CC2)c(C)c1	0.0194
CCO/N=C/c1ccc(OCCC2CCN(c3nc(OC)nc(OC)n3)CC2)cc1	0.060
CCON=Cc1ccc(OCCC2CCN(c3ccc(C)nn3)CC2)c(O)c1	0.0084
CCON=Cc1ccc(OCCC2CCN(c3ccc(Cl)nn3)CC2)c(OC)c1	0.0077
CCO/N=C/c1ccc(OCCC2CCN(c3nc4ccccc4o3)CC2)cc1	0.0261
CCON=Cc1cc(C)c(OCCC2CCN(c3ccc(C)nn3)CC2)cc1C	0.0593
CCON=Cc1ccc(OCCC2CCN(c3ccc(C)nn3)CC2)c(C)c1C	0.0258
CO/N=C/c1ccc(OCCC2CCN(c3nc(OC)nc(OC)n3)CC2)cc1	0.0593
CCO/N=C/c1c(C)cc(OCCC2CCN(c3ccc(C)nn3)CC2)cc1C	0.0697
CO/N=C/c1ccc(OCCC2CCN(c3cncc(Cl)n3)CC2)cc1	0.0402
CON=Cc1ccc(OCCC2CCN(c3ccc(C)nn3)CC2)c(C)c1C	0.0308
CON=Cc1ccc(OCCC2CCN(c3ccc(C)nn3)CC2)cc1	0.0068
CO/N=C/c1ccc(OCCC2CCN(c3nc4ccccc4o3)CC2)cc1	0.021
CCO/N=C/c1ccc(OCCCCN(C)c2ccc(Cl)nn2)cc1	0.038
CCO/N=C/c1ccc(OCCC2CCN(c3cc(C)c(Cl)nn3)CC2)cc1	0.0107
CON=Cc1ccc(OCCC2CCN(c3ccc(Cl)nn3)CC2)cc1	0.0072
CCON=Cc1ccc(OCCC2CCN(c3nnc(C(F)(F)F)s3)CC2)cc1	0.0514
CON=Cc1ccc(OCCC2CCN(c3ccc(Cl)nn3)CC2)c(OC)c1	0.0138
CCO/N=C/c1ccc(OCCC2CCN(c3ncc(CC)cn3)CC2)cc1	0.0638
CCO/N=C/c1ccc(OCCCCCOc2ccc(Cl)nn2)cc1	0.0157
CCON=Cc1ccc(OCCC2CCN(c3cnc(Cl)cn3)CC2)cc1	0.0502
CCCON=Cc1ccc(OCCC2CCN(c3ccc(Cl)nn3)CC2)cc1	0.0077
CCON=Cc1ccc(OCCC2CCN(c3ccc(C)nn3)CC2)c(C)c1	0.0093
CCON=Cc1ccc(OCCC2CCN(c3cccc(C)n3)CC2)cc1	0.0424
CCO/N=C/c1ccc(OCCC2CCN(c3ccc(C)nn3)CC2)cc1C	0.0032
CCO/N=C/c1ccc(OCCC2CCN(c3ccc(C)nn3)CC2)cc1OC	0.0103
CO/N=C/c1ccc(OCCC2CCN(c3ccc(C)nn3)CC2)cc1C	0.0011
CCON=Cc1ccc(OCCC2CCN(c3ccc(Cl)nn3)CC2)c(C)c1	0.0111
C=CCON=Cc1ccc(OCCC2CCN(c3ccc(Cl)nn3)CC2)cc1	0.0078
CON=Cc1cc(C)c(OCCC2CCN(c3ccc(C)nn3)CC2)cc1C	0.0256
CO/N=C/c1ccc(OCCC2CCN(c3nc4ccccc4s3)CC2)cc1	0.0233
CO/N=C/c1c(C)cc(OCCC2CCN(c3ccc(C)nn3)CC2)cc1C	0.0349
CON=Cc1ccc(OCCC2CCN(c3ccc(C)nn3)CC2)c(C)c1	0.0054
CCc1cnc(N2CCC(CCOc3ccc(/C=N/OC)cc3)CC2)nc1	0.0554

###

# RUN_DESCRIPTION: in vitro
QUANTITY_MEASURED: CC50

MOLECULE	QUANTITY_MEASURED	VALUE_OBSERVED
CCO/N=C/c1ccc(OCCC2CCN(c3ccc(Cl)nn3)CC2)cc1 [Compound 1]	CC50	> 50 µg/mL

###

# RUN_DESCRIPTION: in vitro
# MEASUREMENT_CONDITIONS: mammalian cell culture (cell line not stated)
QUANTITY_MEASURED: CC50

COMPOUND	QUANTITY_MEASURED	VALUE_OBSERVED
NC(=O)c1ncn([C@@H]2O[C@H](CO)[C@@H](O)[C@H]2O)n1 [Ribavirin]	CC50	> 100 µg/mL

###

# System: human embryo lung (MRC-5) cells
# RUN_DESCRIPTION: Cytotoxicity (CC50 or MTC) in uninfected MRC-5 cells
# MEASUREMENT_CONDITIONS: unit not given

COMPOUND	Activity on Rhinovirus Type 1A MTC
CC(C)ON=Cc1ccc(OCCC2CCN(c3ccc(Cl)nn3)CC2)cc1	>1
CCON=Cc1ccc(OCCCC2CCN(c3cccnn3)CC2)cc1	>1
CCCON=Cc1cccc(OCCN2CCN(c3ccc(C)nn3)CC2)c1	>1
Cc1ccc(N2CCC(CCOc3ccc(C=NOCC(F)(F)F)cc3)CC2)nn1	0.56
CCON=Cc1ccc(OCCC2CCCN(c3ccc(Cl)nn3)C2)cc1 (centres unmarked)	>1

###

# RUN_DESCRIPTION: in vitro
# MEASUREMENT_CONDITIONS: mammalian cell culture (cell line not stated)

MOLECULE	CC50
CCO/N=C/c1csc(OCCC2CCN(c3ccc(C)nn3)CC2)n1	> 0.5 µg/mL
CCO/N=C/c1ccc(OCCC2CCN(c3nnc(C)s3)CC2)cc1	> 0.5 µg/mL
CCO/N=C/c1ccc(OCCCCCN(C)c2ccc(Cl)nn2)cc1	> 0.5 µg/mL
Cc1cc(CCCOc2c(C)cc(-c3noc(C(F)(F)F)n3)cc2C)on1 [Pleconaril, reference compound]	> 0.1 µg/mL

###

# System: HRV type 2
# RUN_DESCRIPTION: Inhibition of viral cytopathic effect (CPE), visual scoring or neutral red, HRV type 2 in KB cells
# Type: cell-based, human rhinovirus
# MEASUREMENT_CONDITIONS: HRV type 2 in KB cells, CPE inhibition
Below: a set of entries, each annotated with reported Activity on Rhinovirus Type 2 EC50.
QUANTITY_MEASURED: Activity on Rhinovirus Type 2 EC50 (µg/mL)

SMI	SCALE_UNIT	COMPARATIVE_SIGN	VALUE_OBSERVED
CCON=Cc1cc(C)c(OCCCc2cc(C)no2)c(C)c1	µg/mL	<	0.05
CCON=Cc1ccc(OCCC2CCN(c3ccc(Cl)nn3)CC2)c(OC)c1	µg/mL	=	0.009
CCON=Cc1ccc(OCCCC2CCN(c3ccc(Cl)nn3)CC2)cc1	µg/mL	=	0.014
CCON=Cc1ccc(OCCN2CCN(c3ccc(Cl)nn3)CC2)cc1	µg/mL	=	0.1
CON=Cc1cccc(OCCC2CCN(c3ccc(Cl)nn3)CC2)c1	µg/mL	<	0.001
C=CCON=Cc1cc(O)cc(OCCC2CCN(c3ccc(Cl)nn3)CC2)c1	µg/mL	=	0.4
C=CCON=Cc1ccc(OCCC2CCN(c3ccc(Cl)nn3)CC2)cc1	µg/mL	=	0.006
CCON=Cc1cccc(OCCC2CCN(c3ccc(Cl)nn3)CC2)c1	µg/mL	<	0.001
CCON=C(C)c1ccc(OCCC2CCN(c3ccc(C)nn3)CC2)cc1	µg/mL	=	0.5

###

Examples of compounds with documented Activity on Rhinovirus Type 1A MTC follow.
# Tested on: human embryo lung (MRC-5) cells
# RUN_DESCRIPTION: Cytotoxicity (CC50 or MTC) in uninfected MRC-5 cells
# MEASUREMENT_CONDITIONS: unit not given

SMI	Activity on Rhinovirus Type 1A MTC
NC(=O)c1ncn([C@@H]2O[C@H](CO)[C@@H](O)[C@H]2O)n1	98.3
CON=C(C)c1ccc(OCCC2CCN(c3ccc(C)nn3)CC2)cc1	>1
C=CCON=Cc1cccc(OCC2CCN(c3ccc(Cl)nn3)CC2)c1	>1
CCON=Cc1ccc(OCCN2CCN(c3cccnn3)CC2)cc1	>1
C=CCON=Cc1ccc(OCCN2CCN(c3cccnn3)CC2)cc1	>1
CON=Cc1ccc(OCCN2CCN(c3ccc(Cl)nn3)CC2)cc1	>1
CON=Cc1cccc(OCC2CCN(c3ccc(Cl)nn3)CC2)c1	>1
CCON=Cc1ccc(OCCC2CCN(c3ccc(OC)nn3)CC2)cc1	>1
C=CCON=Cc1ccc(OCCC2CCN(c3ccc(C)nn3)CC2)c(C)c1	0.667

###

Property: Activity on Rhinovirus Type 1A MTC; scope: individual compounds
# Test system: human embryo lung (MRC-5) cells
# RUN_DESCRIPTION: Cytotoxicity (CC50 or MTC) in uninfected MRC-5 cells
# MEASUREMENT_CONDITIONS: unit not given
QUANTITY_MEASURED: Activity on Rhinovirus Type 1A MTC

COMPOUND	TARGET_SYSTEM	VALUE_OBSERVED
C=CCON=Cc1ccc(OCCC2CCCN(c3ccc(Cl)nn3)C2)cc1 (stereo not drawn) [Compound 141]	human embryo lung (MRC-5) cells	>1
C#CCON=Cc1ccc(OCCC2CCN(c3ccc(C)nn3)CC2)cc1 [Compound 88]	human embryo lung (MRC-5) cells	>1
CON=Cc1cccc(OCCC2CCN(c3ccc(Cl)nn3)CC2)c1 [Compound 16]	human embryo lung (MRC-5) cells	>1
C=CCON=Cc1cccc(OCCN2CCN(c3ccc(C)nn3)CC2)c1 [Compound 72]	human embryo lung (MRC-5) cells	>1
CCON=Cc1ccc(OCCC2CCN(c3ccc(C)nn3)CC2)c(C)c1 [Compound 51]	human embryo lung (MRC-5) cells	0.663
CCON=C(C)c1cc(OC)c(OCCC2CCN(c3ccc(Cl)nn3)CC2)c(OC)c1 [Compound 6]	human embryo lung (MRC-5) cells	>10.00
CCON=Cc1ccc(OCCC2CCN(c3cccnn3)CC2)cc1 [Compound 49]	human embryo lung (MRC-5) cells	>1
CCON=C(C)c1ccc(OCCC2CCN(c3ccc(C)nn3)CC2)cc1 [Compound 4]	human embryo lung (MRC-5) cells	10.00
CCON=Cc1ccc(OCC2CCN(c3ccc(Cl)nn3)CC2)cc1 [Compound 31]	human embryo lung (MRC-5) cells	>1
